Please go through the items and note down their GI50.
test system: NCI-H522; experiment: NCI tumour cell line growth inhibition, 48 h
Active and inactive are the calls of the source. Rule as the data show it: active = GI50 up to about 1.1 µM and inactive = higher.

So for "COc1cc(Nc2n[nH]c(NS(=O)(=O)c3cc(C)c(Cl)cc3S)n2)cc(OC)c1OC" , the logged GI50 turned out to be > 100 µM (inactive)

So for COC(=O)C1C(C(=O)OC)N(Cc2ccccc2)C(=O)N1Cc1ccccc1 (stereo unspecified) , the logged GI50 turned out to be 37.5 µM (inactive)

So for CCCNC(=O)C1C(=O)C(=O)N(CCC)C1=O (stereo unspecified) , the logged GI50 turned out to be > 100 µM (inactive)

So for CCC(CCCCC1CC[C@H]2CC(=O)C[C@@H]12)OC (stereo partly specified) , the logged GI50 turned out to be > 100 µM (inactive)

So for "O=C(CCC(=O)Nc1cccc(Cl)c1)CC(=O)c1ccc(F)cc1" , the logged GI50 turned out to be > 100 µM (inactive)

So for CCCCCCCCCCCCCP(=O)(NCC(N)=O)OCC (stereo unspecified) , the logged GI50 turned out to be > 10 µM (inactive)

So for O=P(O)(NCCCl)NCCCl [PALIFOSFAMIDE] , the logged GI50 turned out to be > 100 µM (inactive)

So for O=C1CC(Sc2nc3ccc(I)cc3c(=O)n2Cc2ccccc2)C(=O)NN1 (stereo unspecified) , the logged GI50 turned out to be 1.94 µM (inactive)

So for "Cc1nc2[nH]ncn2c(=O)c1CCCl" , the logged GI50 turned out to be > 10 µM (inactive)

So for "N#Cc1c(-c2ccc(Cl)cc2)cc(-c2nc3ccccc3[nH]2)nc1N" , the logged GI50 turned out to be 13.7 µM (inactive)

So for "O=[N+]([O-])C(=C(NCc1ccccc1)NCc1ccccc1)C(Cl)=C(Cl)Cl" , the logged GI50 turned out to be 37 µM (inactive)

---

tested on: HL-60; experiment: NCI tumour cell line growth inhibition, 48 h
The source made the active and inactive calls. No stated cut-off is given here; in the data, active = GI50 up to about 1.1 µM and inactive = higher.
Parameter call: string, one of active, inactive

Task item: Record lookup: outcome of this test for CCOP(C)(=O)/C(Cc1ccc(OC)c(OC)c1)=N\O (stereo unspecified) ?
Reply: inactive

Task item: Record lookup: outcome of this test for "COc1cc2ccccc2c2cc([N+](=O)[O-])oc12" ?
Reply: inactive

Task item: Record lookup: outcome of this test for CC1CC(C)(O)CC(C(O)CC2CC(=O)NC(=O)C2)C1=O (stereo unspecified) [RESACTIN A] ?
Reply: active

Task item: Record lookup: outcome of this test for "Cc1nc2ccccc2n1Cc1nnc2n1N=C(c1ccccc1)CS2" ?
Reply: inactive

Task item: Record lookup: outcome of this test for "CSC(=S)Nc1cc(C)ccn1" ?
Reply: inactive

Task item: Record lookup: outcome of this test for "CCOC(=O)Cn1c(=O)c2nc(SC)sc2n(-c2ccccc2)c1=S" ?
Reply: inactive

---

Please go through the items and note down their GI50.
system: RPMI-8226; test: NCI tumour cell line growth inhibition, 48 h
The source made the active and inactive calls. No stated cut-off is given here; in the data, active = GI50 up to about 1.1 µM and inactive = higher.

So for C=C1C[C@H](O)[C@H]2C(C[Se]c3ccccc3)C(=O)O[C@@H]2[C@H]2[C@H](C)C(O)C[C@@H]12 (some centres undefined) , the logged GI50 turned out to be 23.9 µM (inactive)

So for "CN(C)c1ccc(/C=C(/NC(=O)c2ccccc2)c2nc3cc(Cl)ccc3[nH]2)cc1" , the logged GI50 turned out to be 19.1 µM (inactive)

So for CCOC(=O)[C@]12C3C=CC(C3)C1C(=O)C1OC12 (some centres undefined) , the logged GI50 turned out to be > 100 µM (inactive)

So for "N#Cc1c(-c2ccc(Cl)cc2)cc(-c2nc3ccccc3[nH]2)nc1N" , the logged GI50 turned out to be 4.22 µM (inactive)

---

system: OVCAR-4; assay: NCI tumour cell line growth inhibition, 48 h
Calls of active or inactive are those of the source. Rule as the data show it: active = GI50 up to about 1.1 µM and inactive = higher.
Parameter call: string, one of true (active), false (inactive)

Task item: Record lookup: outcome of this test for "Nc1ccc(C(=O)N/C(=C\c2ccc3c(c2)OCO3)c2nc3c(O)nc(S)nc3[nH]2)cc1" ?
Reply: false

Task item: Record lookup: outcome of this test for COC(=O)C(=O)C(C(=O)C(=O)Nc1cccc(OC)c1)c1nc2ccc(Cl)cc2nc1O (stereo not given) ?
Reply: false

Task item: Record lookup: outcome of this test for "N#Cc1c(-c2ccc(Cl)cc2)cc(-c2nc3ccccc3[nH]2)nc1N" ?
Reply: false

Task item: Record lookup: outcome of this test for "CC(C)(C)c1ccc(C(C)(C)C)c(N2C(=O)[C@@H]3[C@@H]4C=C[C@@H](C4)[C@]3(C)C2=O)c1" ?
Reply: false

Task item: Record lookup: outcome of this test for "CCOC(=O)Cn1nnc2cc(Nc3c(C)[n+]([O-])c4cc(F)c(OCC)cc4[n+]3[O-])ccc21" ?
Reply: false

Task item: Record lookup: outcome of this test for "O=c1[nH]c(NCc2cccnc2)nc2[nH]cnc12" ?
Reply: false

Task item: Record lookup: outcome of this test for "[N-]=[N+]=C1C(=O)C2CC3CC(C2)CC1C3" ?
Reply: false

Task item: Record lookup: outcome of this test for "COc1ccc2[nH]c3c(C)c4cc[n+](COC(=O)c5ccccc5)cc4c(C)c3c2c1" ?
Reply: true

Task item: Record lookup: outcome of this test for "Cn1cc(S(=O)(=O)NC(=O)Nc2ccc(Cl)cc2)c2ccccc21" ?
Reply: false

Task item: Record lookup: outcome of this test for "O=[N+]([O-])C(=C(NCc1ccccc1)NCc1ccccc1)C(Cl)=C(Cl)Cl" ?
Reply: false

---

tested on: SK-MEL-28; assay: NCI tumour cell line growth inhibition, 48 h
Calls of active or inactive are those of the source. Cut-off read from the data, not from the text of the source: active = GI50 up to about 1.1 µM and inactive = higher.
Please go through the items and note down their GI50.

So for "COCC(C)(C)/N=C/N1Cc2cc3ccccc3nc2C1" , the logged GI50 turned out to be > 100 µM (inactive)

So for "O=C1Cc2ccccc2N1/N=C\c1ccc([N+](=O)[O-])cc1" , the logged GI50 turned out to be > 100 µM (inactive)

So for Cc1ccc(C2(C)CC/C(=N/N=C3/CCC(C)(c4ccc(C)c(C)c4)c4cc(C)c(C)cc43)c3cc(C)c(C)cc32)cc1C (configuration not stated) , the logged GI50 turned out to be > 100 µM (inactive)

So for "CCN(CC)C(=O)CCN1CC1" , the logged GI50 turned out to be > 10 µM (inactive)

So for "CN(C)c1ccc(/C=C(\C#N)C(N)=C(C#N)C#N)cc1" , the logged GI50 turned out to be 80 µM (inactive)

So for "O=[N+]([O-])c1cnc(N(CCO)CCO)s1" , the logged GI50 turned out to be > 100 µM (inactive)

So for "CCn1c(CCl)nc2c1C(=O)c1ccccc1C2=O" , the logged GI50 turned out to be 1.76 µM (inactive)

So for "NC1=Nc2cc(C(F)(F)F)ccc2Sc2nc3ccccc3n21" , the logged GI50 turned out to be > 100 µM (inactive)

So for CC(=O)OCC1OC(NC(=O)N(CCCl)N=O)C(OC(C)=O)C(OC(C)=O)C1OC(C)=O (configuration not stated) , the logged GI50 turned out to be > 100 µM (inactive)

So for "CCOc1ccc(NC(=O)C(=O)CC(=O)c2c[n+]([O-])c3cc(C)c(C)cc3[n+]2[O-])cc1" , the logged GI50 turned out to be > 100 µM (inactive)

So for "COc1ccc2[nH]c3c(C)c4cc[n+](COC(=O)c5ccccc5)cc4c(C)c3c2c1" , the logged GI50 turned out to be 1.31 µM (inactive)

So for OCc1cc2c([nH]c3ccccc32)c(C(O)CO)n1 (configuration not stated) , the logged GI50 turned out to be > 100 µM (inactive)

So for CCC1(O)C(=O)OCc2c1cc1n(c2=O)Cc2cc3ccc(CO)cc3nc2-1 (configuration not stated) , the logged GI50 turned out to be > 78.5 µM (inactive)

So for CCCCCCCCCCCCCP(=O)(NCC(N)=O)OCC (configuration not stated) , the logged GI50 turned out to be 18.2 µM (inactive)

So for "COc1cc([N+](=O)[O-])ccc1NC1=CC(=O)CCC1" , the logged GI50 turned out to be 59.4 µM (inactive)

So for "Nc1ccccc1NC(=O)c1ccc(CNC(=O)OCc2cccnc2)cc1" , the logged GI50 turned out to be 1.97 µM (inactive)

So for "CC(=O)CC(=O)NC=O" , the logged GI50 turned out to be > 100 µM (inactive)

So for "CCOC(=O)c1cc2c3ccn(Cc4ccccc4)c3c3c(C)noc3c2[nH]1" , the logged GI50 turned out to be > 100 µM (inactive)

So for CSc1nc2c(c(=O)[nH]1)N=C(c1ccccc1)CC(c1ccccc1)N2 (configuration not stated) , the logged GI50 turned out to be 50.6 µM (inactive)

So for "COc1ccc2ccccc2c1/C=C/C(=O)c1ccccc1" , the logged GI50 turned out to be 5.96 µM (inactive)

So for "C[C@]12CC[C@@H]3c4ccc(OCC(=O)O)cc4CC[C@H]3[C@@H]1CCC2=O" , the logged GI50 turned out to be > 100 µM (inactive)

So for COc1cc2c(cc1OC)C1C(O)C(OC)C(Br)C3(Br)CCN(C2)C13 (configuration not stated) , the logged GI50 turned out to be > 100 µM (inactive)

meta.source: ChEMBL document CHEMBL1201862
